- method.summary: Microsomal metabolic stability
- Format: in vitro ADME, mouse
- measurement.conditions: microsomal metabolic stability half-life, mouse liver microsomes
Numbered stars: 1 amine (or outer) side, 2 acyl side, 3 side chain; on linkers, the order of the positions; unused ones are H or OH. Bridge positions count the residues as written; N and C are the ends. Square brackets hold non-standard residues; d marks the D form. Peptide text beside a SMILES is read from it. * marks the point of attachment. Piperazine(2S-CO,4-Me) = CN1CCN[C@H](C(=O)O)C1; Phe(3,5-F2) = N[C@@H](Cc1cc(F)cc(F)c1)C(=O)O; NH(1-Me-indolin-5-yl) = CN1CCc2cc(N*)ccc21; Morpholine(3S-CO) = O=C(O)[C@@H]1COCCN1; Phe(3-Me) = Cc1cccc(C[C@H](N)C(=O)O)c1; Pro(4R-Me) = C[C@H]1CN[C@H](C(=O)O)C1; X1 = O=C([C@@H]1CSCCN1[*:1])[*:2]; Hyp = O=C(O)[C@@H]1C[C@@H](O)CN1; NH(4-Me-phenyl) = Cc1ccc(N*)cc1; aThr = C[C@H](O)[C@H](N)C(=O)O; CO = O=C([*:1])[*:2]
quantity: Mouse

**Query** Find the recorded Mouse belonging to Cc1ccc(NC(=O)N[C@@H](Cc2cccc(C)c2)C(=O)N[C@@H]2C(=O)N3C[C@H](O)C[C@H]3C(=O)N3CCSC[C@H]3C(=O)N[C@@H](C)C(=O)N3C[C@H](C)C[C@H]3C(=O)O[C@H]2C)cc1 [Compound 42] ({NH(4-Me-phenyl)-CO}-[Phe(3-Me)][aThr][Hyp][X1]A[Pro(4R-Me)]; ester 2-C) and report it.
**Result** 0.78 ± .783 h

**Query** Now consider Cc1ccc(NC(=O)N[C@@H](Cc2cccc(C)c2)C(=O)N[C@H]2COC(=O)[C@@H]3CCCN3C(=O)[C@H](C)NC(=O)[C@@H]3CCCCN3C(=O)[C@@H]3C[C@@H](O)CN3C2=O)cc1 .
**Result** 4.37 ± .373 h

**Query** Now consider Cc1ccc(NC(=O)N[C@@H](Cc2cccc(C)c2)C(=O)N[C@@H]2C(=O)N3C[C@H](O)C[C@H]3C(=O)N3CCN(C)C[C@H]3C(=O)N[C@@H](C)C(=O)N3C[C@H](C)C[C@H]3C(=O)O[C@H]2C)cc1 [Compound 30] ({NH(4-Me-phenyl)-CO}-[Phe(3-Me)][aThr][Hyp][Piperazine(2S-CO,4-Me)]A[Pro(4R-Me)]; ester 2-C) .
**Result** 6.21 ± .215 h

**Query** Now consider C[C@@H]1C[C@H]2C(=O)O[C@@H](C)[C@H](NC(=O)[C@H](Cc3cc(F)cc(F)c3)NC(=O)Nc3ccc4c(c3)CCN4C)C(=O)N3CCC[C@H]3C(=O)N3CCOC[C@H]3C(=O)N[C@@H](C)C(=O)N2C1 [Compound 32] ({NH(1-Me-indolin-5-yl)-CO}-[Phe(3,5-F2)][aThr]P[Morpholine(3S-CO)]A[Pro(4R-Me)]; ester 2-C) .
**Result** 0.95 ± .95 h
